- Experiment Description: caspase activation in A1-primed MEFs – cell-based, CaspaseGlo luminescence, A1 inhibitor project, primary screen (AID 2241);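 further: effector caspase 3 and 7 activity cleaving a DEVD luciferin substrate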
- Particulars: MEF A1-2A-BIM cells, caspase-Glo luminescence, 3 h; hits give high values; percent of clofoctol signal, DMSO as zero; concentration not given here
Screen size: about 21,000 compounds; about 110 (0.52%) were called active. For the sample, actives were picked, then their nearest neighbours and some compounds at random.

Compound	caspase activation / %
CC1(C)Cc2c(sc3ncn4nc(COc5ccc(Cl)cc5)nc4c23)C(C)(C)N1	0.338
COc1ccc(N/C(N)=N/c2nc(CSc3nc4ccccc4s3)cc(=O)[nH]2)cc1	-0.646
Oc1c(Cl)cc(Cl)cc1C1Nc2cc(C(F)(F)F)ccc2-n2cccc21 (stereo not drawn)	-0.566
C=CCn1c(SC)nnc1-c1ccc(OC)c(OC)c1	0.905
CCOc1ccc2c(c1)sc(=NC(=O)c1cc3ccccc3cc1OC)n2C	1.85
C[C@@H]1CN([C@H](C)CO)C(=O)c2cc(NS(=O)(=O)c3ccc(F)cc3)ccc2O[C@@H]1CN(C)C(=O)Nc1cccc2ccccc12	-0.274
Cc1ccc(C23CC4CC(CC(CN)(C4)C2)C3)cc1C	4.34
COc1cc(SC)ccc1C(=O)N(C)c1ccccc1	-0.443
Cc1cc(C)n(CCc2nc3c4ccccc4n(Cc4ccc(Cl)cc4)c(=O)n3n2)n1	-0.449
O=C1CC(c2ccccc2)C(=O)N1c1ccc(F)cc1 (stereo not drawn)	0.129
O=S(=O)(NCc1ccc(-c2cccs2)cc1)c1cccs1	0.285
CC(=O)N1[C@@H](c2ccc(C)cc2)SC(C)(C)[C@@H]1C(=O)O	-0.0443
CCCCn1c2ccccc2c2nc3ccccc3nc21	-1.06
Cc1ccc(S(=O)(=O)Nc2ccc3c(c2)C(=O)N([C@@H](C)CO)C[C@H](C)[C@@H](CN(C)Cc2ccc4c(c2)OCO4)O3)cc1	-0.498
O=c1c2c3c(sc2[nH]c(=S)n1Cc1ccccc1)CCCCC3	-0.256
C/C=C(/C)C(=O)O[C@H]1CC(C)(C)C[C@H]2C3=CCC4[C@@]5(C)CC[C@H](O[C@@H]6O[C@H](C(=O)O)[C@@H](O[C@@H]7O[C@H](CO)[C@H](O)[C@H](O)[C@H]7O[C@@H]7O[C@H](CO)[C@@H](O)[C@H](O)[C@H]7O)[C@H](O)[C@H]6O[C@@H]6O[C@@H](C)[C@H](O)[C@@H](O)[C@H]6O)C(C)(C)C5CC[C@@]4(C)[C@]3(C)[C@@H](O)[C@@H](O)[C@@]12CO (stereo partly drawn)	-2.44
Cc1ccc(O)c(C(C)(C)C)c1	-0.605
O=C(NCN1CCCCC1)C12CC3CC(CC(C3)C1)C2	0.282
O=C(NCc1ccc2c(c1)OCO2)c1ccc(Cl)cc1	-0.323
C[C@H](CO)N1C[C@H](C)[C@H](CN(C)S(C)(=O)=O)Oc2ccc(NC(=O)CCCN(C)C)cc2C1=O	0.894
Cc1ccc(NC2=CC(=O)NC2)cc1	1.28
CCC(=O)c1ccc(OC(=O)C2c3ccccc3Oc3ccccc32)cc1	-0.0959
C[C@H](CO)N1C[C@H](C)[C@H](CN(C)Cc2ccc(-c3ccccc3)cc2)Oc2ccc(NS(=O)(=O)c3ccccc3)cc2C1=O	0.241
CCn1c(=O)c2c(n3c(SCC(N)=O)nnc13)-c1ccccc1CC21CCCCC1	1.18
CCOC(=O)c1cc(CC)sc1/N=C/C1C(=O)c2ccccc2C1=O	0.959
COC(=O)C1=C(C)Nc2c(c(=O)n(C)c(=O)n2C)C1c1cccc(OCc2ccccc2)c1 (stereo not drawn)	0.0517
CN(C)c1ccc(/C=C(\C#N)S(=O)(=O)c2ccccc2)cc1C#N	0.997
Cc1sc2nc3n(c(=O)c2c1C)N=C(c1ccc(F)cc1)CS3	-1.09
